// data source = ChEMBL document CHEMBL1140594

The entries below come with measured IC50 values attached.
- experimentDescription: Inhibition of FTase
outcomeMeasure: IC50 (nM)

compound=N#Cc1ccc(Cn2cncc2CN2CCN(c3ccccc3)C(=O)C2)cc1 measuredresult=5
compound=O=C(Cc1ccncc1)N1CCN([C@H]2c3ccc(Cl)cc3CCc3cccnc32)CC1 measuredresult=140
compound=CC[C@@]1(c2cccc(Oc3cc([C@@](C)(N)c4cncn4C)ccc3C#N)c2)CCCCN(C)C1=O measuredresult=0.06
compound=CN1CCN(C(=O)c2cn(Cc3cncn3Cc3ccc4c(c3)OCO4)cc2-c2cccc3ccccc23)CC1 measuredresult=2.4
compound=CC[C@]1(c2cccc(Oc3cc([C@@](C)(N)c4cncn4C)ccc3C#N)c2)CCCCN(C)C1=O measuredresult=1.5
compound=C=C(C(=O)N1C[C@H]2[C@@]3(c4ccc(C)cc4)CC[C@H](c4ccccc43)[C@@]2(C(=O)O)C1)c1ccccc1OC measuredresult=8
compound=Fc1ccc2c(c1)[C@@H](OCc1ccc(Cl)cc1Cl)[C@@H](Cn1ccnc1)S2 measuredresult=700
compound="CN1CCC(C2c3ccccc3CCc3cccnc32)CC1 (stereo not given)" measuredresult=720000
compound=O=C1CN(Cc2cncn2Cc2cccc(Oc3ccccc3)c2)CCN1c1ccc(C(F)(F)F)cc1 measuredresult=5800
compound=N#Cc1ccc2cc1Oc1ccc3cccc(c3c1)N1CCN(CC1=O)Cc1cncn1C2 measuredresult=0.1
compound="CC(=O)OCC(=O)[C@@]1(O)C(C)CC2C3CCC4=CC(=O)C=C[C@]4(C)C3=CC[C@@]21C (stereo not given in full)" measuredresult=40000
compound=Cc1cccc2c1[C@@H](O)[C@@H](Cn1ccnc1)S2 measuredresult=270000
compound="Cn1cncc1C(OCc1ccc(C#N)cc1NC(=O)c1ccccc1)c1ccc(C#N)cc1 (stereo not given)" measuredresult=5
compound=CC[C@@H](C)[C@@H](CO[C@@H](Cc1ccccc1)C(=O)N[C@@H](CCS(C)(=O)=O)C(=O)OC)NC[C@@H](N)CS measuredresult=240
compound=CC[C@@H](C)[C@@H](CO[C@@H](Cc1ccccc1)C(=O)N[C@@H](CCS(C)(=O)=O)C(=O)O)NC[C@@H](N)CS measuredresult=1.8
compound=CCCC[C@H]1CN(C(=O)c2cccc3ccccc23)CCN1Cc1cncn1Cc1ccc(C#N)cc1 measuredresult=21
compound=COC(=O)[C@H](CCSC)NC(=O)c1cccc2cc(NC[C@H](N)CS)ccc12 measuredresult=500
compound=CC[C@@H](C)[C@@H](CN(CC(=O)N[C@@H](CCSC)C(=O)O)Cc1cccc2ccccc12)NC(=O)Cc1cn(Cc2ccncc2)cn1 measuredresult=74
compound="N#Cc1ccc(Cn2ccnc2)cc1Oc1cccc(C2CCCCNC2=O)c1 (stereo not given)" measuredresult=41
compound=CC[C@@H](C)[C@@H](CN(CC(=O)N[C@@H](CCSC)C(=O)O)Cc1cccc2ccccc12)NC(=O)Cc1cncn1Cc1ccc(C#N)cc1 measuredresult=0.15
compound="CC(C)CCCC(C)C1CCC2C3C(CC[C@]12C)[C@@](C)(C[C@@H](CC(=O)O)C(=O)O)C(=O)C[C@@H]3C (stereo not given in full)" measuredresult=40
compound=N#Cc1ccc(Cn2cncc2CN2CCN(c3cccc(Cl)c3)C(=O)C2)cc1Oc1ccc2ccccc2c1 measuredresult=1
compound=CCCC[C@H]1CN(c2ccc(Cl)cc2)C(=O)CN1Cc1cncn1Cc1ccc(C#N)cc1 measuredresult=0.44
compound=CSCC[C@H](NC(=O)c1cccc2cc(NC[C@H](N)CS)ccc12)C(=O)O measuredresult=18
compound=COc1ccccc1CC(=O)N1C[C@@H]2[C@@H]3CC[C@@](c4ccccc4)(c4ccccc43)[C@@H]2C1 measuredresult=40000
